target: Hypoxia-inducible factor 1-alpha (Homo sapiens); assay: activators of HIF1alpha nuclear accumulation, confirmation, imaging, fluorescence, U2OS GFP-HIF1alpha (AID 434951); settings: U2OS GFP-HIF1alpha nuclear intensity, high-content imaging
The source made the active and inactive calls.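 Rule for the calls: active = a fitted half-maximal concentration EC50 for the rise in nuclear signal no higher than ten times the top dose tested; inconclusive = flat fit with activity between 30% and 70%, or unusable fit; inactive = EC50 beyond ten times the top dose.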
Respond only with the outcome that fits, drawn from active, inactive

1. CCOc1ccc2c(C)c(Cl)c(=O)oc2c1
inactive
2. COc1ccc(OC)c(C2=Nn3c(nnc3-c3cc(C)[nH]n3)SC2)c1
inactive
3. Cn1ncc(Br)c1NC(=O)CSc1ccc(Cl)cc1
inactive
4. c1ccc2c(NCCc3c[nH]c4ccccc34)c3ccccc3nc2c1
inactive
5. Cc1ccc2nc(-c3ccccn3)c(Nc3ccccc3C)n2c1
active

Query: recorded result category for COc1ccc(NC(=O)c2cccs2)cn1 in this test
Reply: inactive

* * *

molecular target: Hypoxia-inducible factor 1-alpha (Homo sapiens) (UniProt Q16665); assay: activators of HIF1alpha nuclear accumulation, confirmation, imaging, fluorescence, U2OS GFP-HIF1alpha (AID 434951); conditions: U2OS GFP-HIF1alpha nuclear intensity, high-content imaging
Sequence (Q16665 whole entry, looked up): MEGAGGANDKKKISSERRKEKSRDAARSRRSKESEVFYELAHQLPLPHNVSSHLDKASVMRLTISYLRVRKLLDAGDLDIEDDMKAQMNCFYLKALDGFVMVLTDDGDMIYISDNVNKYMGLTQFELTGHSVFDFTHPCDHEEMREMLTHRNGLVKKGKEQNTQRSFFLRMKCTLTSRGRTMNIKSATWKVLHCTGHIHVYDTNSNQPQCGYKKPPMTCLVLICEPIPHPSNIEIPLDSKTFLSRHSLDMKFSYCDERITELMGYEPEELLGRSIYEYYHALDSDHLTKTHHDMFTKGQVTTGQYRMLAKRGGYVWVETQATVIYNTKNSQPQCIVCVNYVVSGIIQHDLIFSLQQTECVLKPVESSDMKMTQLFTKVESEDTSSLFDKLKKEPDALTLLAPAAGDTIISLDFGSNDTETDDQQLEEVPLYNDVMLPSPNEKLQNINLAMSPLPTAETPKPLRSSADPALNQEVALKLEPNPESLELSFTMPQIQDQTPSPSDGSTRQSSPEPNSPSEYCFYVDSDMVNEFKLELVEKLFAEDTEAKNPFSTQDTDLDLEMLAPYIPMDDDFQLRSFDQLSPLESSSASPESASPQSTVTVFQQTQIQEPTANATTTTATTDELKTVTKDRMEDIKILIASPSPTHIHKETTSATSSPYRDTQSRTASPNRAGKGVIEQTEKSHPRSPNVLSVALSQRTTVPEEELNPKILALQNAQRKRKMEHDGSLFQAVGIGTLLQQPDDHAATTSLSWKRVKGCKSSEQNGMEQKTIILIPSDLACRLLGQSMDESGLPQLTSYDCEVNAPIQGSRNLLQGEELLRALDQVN
Active and inactive are the calls of the source.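 Rule for the calls: active = a fitted half-maximal concentration EC50 for the rise in nuclear signal no higher than ten times the top dose tested; inconclusive = flat fit with activity between 30% and 70%, or unusable fit; inactive = EC50 beyond ten times the top dose.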
Respond only with the outcome that fits, drawn from yes (1) for active, no (0) for inactive

1) CCOC(=O)N1CCN(C(=O)c2ccc(Cn3c(=S)[nH]c4cc(OCC)c(OCC)cc4c3=O)cc2)CC1
yes (1)

Query: recorded result category for O=C(N/N=C/C(Br)=C\c1ccccc1)c1n[nH]c2c1CCC2 in this test
Reply: yes (1)

Query: recorded result category for COc1cc(NC(=O)CN2C(=O)c3ccccc3Sc3ccc(C(=O)N4CCOCC4)cc32)cc(OC)c1OC in this test
Reply: no (0)

Query: recorded result category for O=C(N/N=C/c1cc(Cl)cc(Cl)c1O)c1ccncc1 in this test
Reply: no (0)
